# targetSystem: UniProt:Q16620
# Sequence (Q16620 whole entry, looked up): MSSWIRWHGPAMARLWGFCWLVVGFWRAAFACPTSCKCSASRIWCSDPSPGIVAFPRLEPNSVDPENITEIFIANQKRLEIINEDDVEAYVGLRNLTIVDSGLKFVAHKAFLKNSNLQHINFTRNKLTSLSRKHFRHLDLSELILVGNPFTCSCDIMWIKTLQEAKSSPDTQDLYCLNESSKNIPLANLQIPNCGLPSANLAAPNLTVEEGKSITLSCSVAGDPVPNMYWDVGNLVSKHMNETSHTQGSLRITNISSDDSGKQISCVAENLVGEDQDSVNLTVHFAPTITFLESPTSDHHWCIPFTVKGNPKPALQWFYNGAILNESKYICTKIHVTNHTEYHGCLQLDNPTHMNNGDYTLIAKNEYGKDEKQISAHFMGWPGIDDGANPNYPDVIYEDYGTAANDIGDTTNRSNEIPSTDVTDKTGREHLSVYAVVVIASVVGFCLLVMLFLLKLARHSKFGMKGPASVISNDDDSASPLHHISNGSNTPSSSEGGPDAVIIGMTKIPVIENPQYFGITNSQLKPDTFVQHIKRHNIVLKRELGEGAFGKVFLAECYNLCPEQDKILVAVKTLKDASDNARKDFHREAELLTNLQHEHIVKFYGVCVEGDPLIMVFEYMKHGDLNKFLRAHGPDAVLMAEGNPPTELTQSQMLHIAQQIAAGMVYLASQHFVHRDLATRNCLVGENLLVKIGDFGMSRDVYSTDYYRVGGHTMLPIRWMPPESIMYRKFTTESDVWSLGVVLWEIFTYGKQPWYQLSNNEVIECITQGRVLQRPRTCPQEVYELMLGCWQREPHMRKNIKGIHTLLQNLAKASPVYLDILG
# protocolDetails: radiometric filter-binding kinase assay, Kinase HotSpot
# measurementSetup: compound 0.5 µM; ATP 10 µM
Label rule, in plain words: residual activity of 90% and up is true, under 90% is false.

- CCN(CC)CCCCN1c2ccccc2Oc2ccc(Cl)cc21: true
- O=C(Nc1cccc(Nc2cc(Nc3cccc(C(F)(F)F)c3)ncn2)c1)C1CC1: true
- O=C(CCCc1ccc(-c2ccccc2F)cc1)Nc1ccc(O)cc1: true
- CCn1cnc2c(Nc3cccc(Cl)c3)nc(N[C@@H]3CCCC[C@@H]3N)nc21: false
- CC(C)[C@H](CO)Nc1nc(Nc2cc(N)cc(Cl)c2)c2ncn(C(C)C)c2n1: false
- O=C1Nc2ccccc2/C1=C1/Nc2ccccc2/C1=N\OCCC(O)CO (configuration not stated): false
- O=C1NC(=O)C(c2cn(CCCO)c3ncccc23)=C1c1cnccn1: true
- O=C(O)/C=C/c1cc(Br)c(Br)c(Br)c1Br: true
- O=C1Nc2ccccc2/C1=C1\Nc2ccccc2\C1=N/O: false
- Oc1ccc(Nc2nc(-c3ccc(Cl)cc3)cs2)cc1: true
- COc1ccc(CNC(=O)Nc2ncc([N+](=O)[O-])s2)cc1: false
- Cn1nc2c3c(cccc31)C(=O)c1ccccc1-2: false
- COc1ccc(OC)c2c(=S)c3ccccc3[nH]c12: true
- CN([C@@H](Cc1ccc(OS(=O)(=O)c2cccc3cnccc23)cc1)C(=O)N1CCN(c2ccccc2)CC1)S(=O)(=O)c1cccc2cnccc12: true
- O=C1Cc2c([nH]c3ccc(Br)cc23)-c2ccccc2N1: true
- COc1cc2ncc(-c3ccccc3)nc2cc1OC: true
- CN(C)C[C@H]1CCn2c(c(C3=C(c4cn(C)c5ccccc45)C(=O)NC3=O)c3ccccc32)C1: true
- CC(C)c1nn(-c2c(Cl)cccc2Cl)c2nc(Cc3ccc(OCCO)cc3)nc(O)c12: true
- CC(=O)O/N=C1\C(=C2\C(=O)Nc3cc(Br)ccc32)Nc2ccccc21: false
- Cc1nc2cc3nc(-c4cccs4)cnc3cc2n1C: false
- Nc1nnc2[nH]c3ccccc3nc1-2: true
